The values you see were collected from ChEMBL document CHEMBL1212889.

- Test system: Nakaseomyces glabratus
- ASSAY METHOD TEXT: Antimicrobial activity against Candida glabrata ATCC 48435 using alamar blue stain by microdilution assay
- Assay type: functional
Assignment: determine reported MIC for the given compounds.
Supply the numeric figure in µg/mL, leaving out any unit text.

query: Report MIC for Cc1c(-c2ccccc2)c(N2CC[C@H](N(C)C)C2)n2nc(C(C)(C)C)nc2c1C#N tested on Nakaseomyces glabratus.
result: 0.063

query: Lab request: please report MIC under test system Nakaseomyces glabratus for Cc1c(-c2ccccc2)c(N2CC[C@H](N(C)C)C2)n2nc(C(C)(C)CO)nc2c1C#N
result: 0.25

query: // fetch Nakaseomyces glabratus MIC for CCc1nc2c(C#N)c(C)c(-c3ccccc3)c(N3CC[C@H](N(C)C)C3)n2n1
result: 0.125

query: Lab request: please report MIC under test system Nakaseomyces glabratus for Cc1c(-c2ccccc2)c(N2CC[C@H](N(C)C)C2)n2cc(C(C)(C)C)nc2c1C#N
result: 0.25

query: Form: Entry = Cc1c(-c2ccccc2)c(N2CC[C@H](N(C)C)C2)n2nc(C(C)(C)C)cc2c1C#N | System = Nakaseomyces glabratus | MIC = ____
result: 1
